Attribution: the Immune Epitope Database (IEDB)

Biological target: HLA-B*27:05
Experiment: IEDB peptide-MHC binding, purified MHC/direct/fluorescence; filed as Kd, often an IC50 or EC50 that approximates it; bounds were set here for any values at or beyond the usual limits of such assays
Conditions: source organism: Giardia lamblia ATCC 50803
observation_type: Kd

Below, 4 sequences whose answers are already recorded.
KLADMSIYC    ≥ 20 µM
EFDNYRGTI    ≥ 20 µM
CYPRLWGVR    ≥ 20 µM
HCIDKTPGL    ≥ 20 µM

Continue with the next sequence.
Task: Recorded Kd of QPWTPVSSF , please.
Output: ≥ 20 µM

* * *

Target: HLA-B*27:05
Experiment: IEDB peptide-MHC binding, purified MHC/direct/fluorescence; filed as Kd, often an IC50 or EC50 that approximates it; bounds were set here for any values at or beyond the usual limits of such assays
Settings: source organism: Salmonella enterica subsp. enterica serovar Typhimurium
observation_type: Kd

Task: Recorded Kd of KSNGAQQWL , please.
Output: ≥ 20 µM

* * *

Target: HLA-A*01:01
Experiment: IEDB peptide-MHC binding, purified MHC/competitive/fluorescence; filed as Kd, often an IC50 or EC50 that approximates it; bounds were set here for any values at or beyond the usual limits of such assays
Conditions: source organism: Variola virus
observation_type: pKd
// field semantics: pKd = negative decimal log of concentration (mol/L)

Task: Recorded pKd of ETIEILRNY , please.
Output: 5.44

* * *

Target: HLA-B*27:03
Experiment: IEDB peptide-MHC binding, purified MHC/direct/fluorescence; filed as Kd, often an IC50 or EC50 that approximates it; bounds were set here for any values at or beyond the usual limits of such assays
Conditions: source organism: Entamoeba histolytica HM-1:IMSS
pKd: −log10 of the molar value.
observation_type: pKd

Task: Checklist item: pKd tested on HLA-B*27:03, entry DSFAKQPQW , value?
Output: ≤ 4.70

* * *

Molecular target: HLA-A*26:01
Test: IEDB peptide-MHC binding, purified MHC/direct/fluorescence; filed as Kd, often an IC50 or EC50 that approximates it; bounds were set here for any values at or beyond the usual limits of such assays
Details: source organism: Mycobacterium tuberculosis variant bovis
observation_type: pKd
// field semantics: pKd = negative decimal log of concentration (mol/L)

Task: Checklist item: pKd tested on HLA-A*26:01, entry EVAGAGSGF , value?
Output: 8.85

* * *

Molecular target: HLA-A*33:01
Assay: IEDB peptide-MHC binding, purified MHC/competitive/radioactivity; filed as Kd, often an IC50 or EC50 that approximates it; bounds were set here for any values at or beyond the usual limits of such assays
Conditions: source organism: Vaccinia virus Copenhagen
observation_type: Kd (nM)
Your answer is read as nM, so omit the unit and give the number.

MLIYSMWGK    2040

Continue with the next sequence.
Task: Recorded Kd of NTFPNITLK , please.
Output: 164

* * *

Molecular target: HLA-B*57:01
Assay: IEDB peptide-MHC binding, purified MHC/competitive/radioactivity; filed as Kd, often an IC50 or EC50 that approximates it; bounds were set here for any values at or beyond the usual limits of such assays
Conditions: source organism: Dengue virus 3 Singapore/8120/1995
observation_type: Kd (µM)
Your answer is read as µM, so omit the unit and give the number.

Task: Checklist item: Kd tested on HLA-B*57:01, entry HSSTWHYDDE , value?
Output: 6.58

* * *

Target: HLA-B*58:01
Assay: IEDB peptide-MHC binding, purified MHC/competitive/radioactivity; filed as Kd, often an IC50 or EC50 that approximates it; bounds were set here for any values at or beyond the usual limits of such assays
Settings: source organism: Dengue virus 3 Martinique/1243/1999
observation_type: pKd
// field semantics: pKd = negative decimal log of concentration (mol/L)

ASAIVLEFF    7.55

Task: Recorded pKd of ATGPITTLW , please.
Output: 8.31

* * *

Target: HLA-B*39:01
Test: IEDB peptide-MHC binding, purified MHC/competitive/fluorescence; filed as Kd, often an IC50 or EC50 that approximates it; bounds were set here for any values at or beyond the usual limits of such assays
Details: source organism: Hepatovirus A
observation_type: pKd
// field semantics: pKd = negative decimal log of concentration (mol/L)

Task: Recorded pKd of YMYAVSGAL , please.
Output: 8.82

* * *

Target: HLA-B*07:02
Assay: IEDB peptide-MHC binding, purified MHC/competitive/fluorescence; filed as Kd, often an IC50 or EC50 that approximates it; bounds were set here for any values at or beyond the usual limits of such assays
Conditions: source organism: human gammaherpesvirus 4
pKd: −log10 of the molar value.
observation_type: pKd

Task: Recorded pKd of APGWLIWTY , please.
Output: ≤ 4.70

* * *

Molecular target: HLA-B*54:01
Assay: IEDB peptide-MHC binding, purified MHC/competitive/radioactivity; filed as Kd, often an IC50 or EC50 that approximates it; bounds were set here for any values at or beyond the usual limits of such assays
Details: source organism: Mammarenavirus lassaense
observation_type: Kd (nM)
Your answer is read as nM, so omit the unit and give the number.

Task: Recorded Kd of MPDCGMSVLA , please.
Output: 105

* * *

Biological target: HLA-A*01:01
Assay: IEDB peptide-MHC binding, purified MHC/direct/fluorescence; filed as Kd, often an IC50 or EC50 that approximates it; bounds were set here for any values at or beyond the usual limits of such assays
Conditions: source organism: Influenza A virus (A/Wisconsin/4755/1994(H1N1))
observation_type: Kd

Task: Recorded Kd of ITKEKKEEL , please.
Output: ≥ 20 µM

* * *

Target: HLA-A*02:06
Assay: IEDB peptide-MHC binding, purified MHC/competitive/radioactivity; filed as Kd, often an IC50 or EC50 that approximates it; bounds were set here for any values at or beyond the usual limits of such assays
Details: source organism: Dengue virus 1 Brazil/97-11/1997
pKd: −log10 of the molar value.
Lab note: anything with pKd at or over 8 counts as yes (1); the rest go in no (0).

Worked cases, answers included:
MLLMLLPTA    yes (1)
MLLNRFTMA    yes (1)

Task: Is reported pKd greater than or equal to 8 here: IILEFFLMVL
Output: no (0)

* * *

Target: HLA-B*58:01
Assay: IEDB peptide-MHC binding, purified MHC/competitive/radioactivity; filed as Kd, often an IC50 or EC50 that approximates it; bounds were set here for any values at or beyond the usual limits of such assays
Settings: source organism: Dengue virus 1 Brazil/97-11/1997
Kd by entry:
Your answer is read as nM, so omit the unit and give the number.

FVTNEVHTW    29.9

Continue with the next sequence.
Task: Checklist item: Kd tested on HLA-B*58:01, entry WASVKKDLIS , value?
Output: 81.3

* * *

Target: HLA-B*44:02
Assay: IEDB peptide-MHC binding, purified MHC/direct/fluorescence; filed as Kd, often an IC50 or EC50 that approximates it; bounds were set here for any values at or beyond the usual limits of such assays
Settings: source organism: Influenza A virus (A/swine/Hong Kong/5190/99(H3N2))
pKd: −log10 of the molar value.
observation_type: pKd

Task: Recorded pKd of GYMFESKSM , please.
Output: ≤ 4.70

* * *

Biological target: HLA-B*40:01
Experiment: IEDB peptide-MHC binding, purified MHC/direct/fluorescence; filed as Kd, often an IC50 or EC50 that approximates it; bounds were set here for any values at or beyond the usual limits of such assays
Conditions: source organism: Influenza A virus (A/goose/Guangxi/1097/2004(H5N1))
pKd: −log10 of the molar value.
observation_type: pKd

Task: Recorded pKd of KYTSGRQEK , please.
Output: ≤ 4.70

* * *

Target: HLA-B*40:02
Test: IEDB peptide-MHC binding, purified MHC/competitive/radioactivity; filed as Kd, often an IC50 or EC50 that approximates it; bounds were set here for any values at or beyond the usual limits of such assays
Conditions: source organism: Lassa virus Josiah
observation_type: Kd (µM)
Your answer is read as µM, so omit the unit and give the number.

Task: Recorded Kd of REPTDLKQF , please.
Output: 1

* * *

Molecular target: HLA-A*26:01
Assay: IEDB peptide-MHC binding, purified MHC/competitive/fluorescence; filed as Kd, often an IC50 or EC50 that approximates it; bounds were set here for any values at or beyond the usual limits of such assays
Conditions: source organism: Burkholderia orbicola
observation_type: pKd
// field semantics: pKd = negative decimal log of concentration (mol/L)

Task: Checklist item: pKd tested on HLA-A*26:01, entry ASAAHLAAY , value?
Output: 6.11

* * *

Target: HLA-A*68:01
Assay: IEDB peptide-MHC binding, purified MHC/competitive/radioactivity; filed as Kd, often an IC50 or EC50 that approximates it; bounds were set here for any values at or beyond the usual limits of such assays
Details: source organism: Vaccinia virus WR
pKd: −log10 of the molar value.
Lab note: anything with pKd at or over 6 counts as True; the rest go in False.

Worked cases, answers included:
MLIFNVKSK    True
PISASDMQK    False
TSVSAKQLR    True
KFNDYRKQMY    False
RSDGYFLKIK    False
SSFIVPEFAK    True
IIKLPTLFGR    True
VSMMSMYGK    True

Task: Is reported pKd greater than or equal to 6 here: RLNNPVILSK
Output: False

Task: What do you have for KINSVKYYGR ?
Output: False

Task: What do you have for KIMSIGFEAR ?
Output: True
